- ASSAY OVERVIEW: LC/MS of serum sample: number of times of freezing and thawing (Table M)
- Assay type: physicochemical, human
- APPLIED CONDITIONS: serum sample, LC/MS; detection intensity changed by 30% or more vs 2 times of freezing and thawing
ATTRIBUTE MEASURED: Number of times when compound is affected
Hi, when you answer, please include the unit after the number. Thanks!

N[C@@H](Cc1c[nH]c2ccccc12)C(=O)O: 6 times
N[C@@H](Cc1ccccc1)C(=O)O: 10 times
O=c1ccn([C@@H]2O[C@H](CO)[C@@H](O)[C@H]2O)c(=O)[nH]1: 4 times
O=C(O)[C@@H]1CC(O)CN1 (stereo partly drawn) [4-Hydroxyproline]: 6 times
C[C@H](CCC(=O)O)[C@H]1CC[C@H]2[C@@H]3[C@H](O)C[C@@H]4C[C@H](O)CC[C@]4(C)[C@H]3C[C@H](O)[C@]12C: 6 times

Recorded Number of times when compound is affected of `NCCc1c[nH]c2ccc(O)cc12` , please.
10 times

Looking for the measured Number of times when compound is affected of `CSCC[C@H](N)C(=O)O` , can you help?
6 times

# query: Number of times when compound is affected of entry `Nc1ncnc2c1ncn2[C@@H]1O[C@H](CO)[C@@H](O)[C@H]1O`
4 times

What does the data say about its Number of times when compound is affected? Entry: `C[C@H](N)C(=O)O`
6 times
